Tested on: SW-620 colon
Assay: NCI tumour cell line growth inhibition, 48 h
// reported TGI for each item listed

Worked examples follow.
| molecule | result |
| --- | --- |
| CCOC(=O)C(NCc1ccc2c(c1)OCO2)(NC(=O)c1ccccc1)C(F)(F)F (stereo not given) | > 100 µM |
| CCOC(=O)CC1(O)CCCCC1(Sc1ccc(C)cc1)Sc1ccc(C)cc1 (stereo not given) | > 100 µM |
| CCCCOC(=O)NC(Nc1ccc(S(=O)(=O)Nc2ccc(OC)nn2)cc1)(C(F)(F)F)C(F)(F)F | > 100 µM |
| COC1CCC(O)C(/C=C/[N+](=O)[O-])C1 (stereo not given) | > 100 µM |
| C[C@]12CCc3nonc3C1CC[C@@H]1C2CC[C@]2(C)NC(=O)CCC12 (stereo not given in full) | > 100 µM |

QUERY: State its TGI for this molecule: `CC(C)(C)c1[nH]cnc1/C=c1\[nH]c(=O)/c(=C/c2ccccc2)[nH]c1=O`
RESULT: 50.7 µM

QUERY: Look up TGI of `O=C1/C(=C/c2ccc(Cl)cc2)N=C(c2ccccc2)N1c1nc2ccccc2s1` and report it.
RESULT: > 100 µM

QUERY: Provide only the value of recorded TGI for `O=C1c2ccccc2C(=O)c2c(NCCNCCO)ccc(O)c21`
RESULT: 12.9 µM

QUERY: State, in one line, measured TGI of `C=CC[P+](c1ccccc1)(c1ccccc1)c1ccccc1`
RESULT: > 100 µM

QUERY: Give a short answer stating reported TGI for `O=C(Nc1ccc(Oc2ccc3nc(NC(=O)c4ccccc4)[nH]c3c2)cc1)Nc1cc(C(F)(F)F)ccc1F` .
RESULT: > 25 µM
